Target: Sialidase A (Streptococcus pneumoniae) (UniProt P62575)
Sequence (P62575 whole entry): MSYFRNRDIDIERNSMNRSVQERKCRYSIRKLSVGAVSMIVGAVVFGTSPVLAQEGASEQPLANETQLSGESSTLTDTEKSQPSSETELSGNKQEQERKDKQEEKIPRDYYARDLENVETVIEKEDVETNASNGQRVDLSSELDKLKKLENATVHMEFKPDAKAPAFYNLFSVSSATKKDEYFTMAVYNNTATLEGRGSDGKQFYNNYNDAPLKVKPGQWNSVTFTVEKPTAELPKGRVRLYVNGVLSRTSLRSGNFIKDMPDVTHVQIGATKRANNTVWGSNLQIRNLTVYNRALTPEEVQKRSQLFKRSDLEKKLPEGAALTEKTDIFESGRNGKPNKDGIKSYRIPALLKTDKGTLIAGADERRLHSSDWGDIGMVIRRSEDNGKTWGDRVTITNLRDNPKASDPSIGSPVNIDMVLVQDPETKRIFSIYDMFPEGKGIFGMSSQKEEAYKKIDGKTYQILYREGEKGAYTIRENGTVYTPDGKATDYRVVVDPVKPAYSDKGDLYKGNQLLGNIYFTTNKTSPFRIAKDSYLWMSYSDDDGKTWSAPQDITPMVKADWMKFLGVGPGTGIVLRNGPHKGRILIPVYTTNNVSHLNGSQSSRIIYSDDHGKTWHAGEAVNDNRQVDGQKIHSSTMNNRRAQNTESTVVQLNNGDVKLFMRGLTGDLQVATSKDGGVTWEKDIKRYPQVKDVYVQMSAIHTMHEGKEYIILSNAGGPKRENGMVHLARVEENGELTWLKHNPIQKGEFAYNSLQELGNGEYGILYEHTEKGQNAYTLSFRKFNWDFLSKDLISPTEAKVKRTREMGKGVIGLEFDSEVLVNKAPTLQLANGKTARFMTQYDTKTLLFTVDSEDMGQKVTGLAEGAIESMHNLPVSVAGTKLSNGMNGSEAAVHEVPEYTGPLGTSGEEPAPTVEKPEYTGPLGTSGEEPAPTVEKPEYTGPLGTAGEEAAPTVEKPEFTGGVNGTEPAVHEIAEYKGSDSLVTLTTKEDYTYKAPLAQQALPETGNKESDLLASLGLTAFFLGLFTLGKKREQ
Details: at 1 mM
Observation Type: inhibition (%)
Write it as a number; the unit % goes unstated.

1. CC(=O)N[C@H]1[C@H]([C@H](O)[C@H](O)CO)OC(C(=O)O)=C[C@@H]1O    99.9

INPUT: Fill in the blank: the reported inhibition of CC(=O)N[C@H]1[C@H]([C@H](O)[C@H](O)Cn2cc(C[C@H](N)C(=O)O)nn2)OC(C(=O)O)=C[C@@H]1O is ____.
OUTPUT: 84.4

INPUT: Consider the compound CC(=O)N[C@H]1[C@H]([C@H](O)[C@H](O)Cn2cc(C[C@H](N)C(=O)N[C@H](CCC(=O)O)C(N)=O)nn2)OC(C(=O)O)=C[C@@H]1O and give its measured inhibition.
OUTPUT: 94.7

INPUT: Reported inhibition, compound CC(=O)N[C@H]1[C@H]([C@H](O)[C@H](O)CN=[N+]=[N-])OC(C(=O)O)=C[C@@H]1O : ____
OUTPUT: 98.8

----------
Below, each entry is listed with its recorded pIC50.
Molecular target: Sialidase (Vibrio cholerae serotype O1 (strain ATCC 39315 / El Tor Inaba N16961))
Sequence (P0C6E9 whole entry, one chain of several): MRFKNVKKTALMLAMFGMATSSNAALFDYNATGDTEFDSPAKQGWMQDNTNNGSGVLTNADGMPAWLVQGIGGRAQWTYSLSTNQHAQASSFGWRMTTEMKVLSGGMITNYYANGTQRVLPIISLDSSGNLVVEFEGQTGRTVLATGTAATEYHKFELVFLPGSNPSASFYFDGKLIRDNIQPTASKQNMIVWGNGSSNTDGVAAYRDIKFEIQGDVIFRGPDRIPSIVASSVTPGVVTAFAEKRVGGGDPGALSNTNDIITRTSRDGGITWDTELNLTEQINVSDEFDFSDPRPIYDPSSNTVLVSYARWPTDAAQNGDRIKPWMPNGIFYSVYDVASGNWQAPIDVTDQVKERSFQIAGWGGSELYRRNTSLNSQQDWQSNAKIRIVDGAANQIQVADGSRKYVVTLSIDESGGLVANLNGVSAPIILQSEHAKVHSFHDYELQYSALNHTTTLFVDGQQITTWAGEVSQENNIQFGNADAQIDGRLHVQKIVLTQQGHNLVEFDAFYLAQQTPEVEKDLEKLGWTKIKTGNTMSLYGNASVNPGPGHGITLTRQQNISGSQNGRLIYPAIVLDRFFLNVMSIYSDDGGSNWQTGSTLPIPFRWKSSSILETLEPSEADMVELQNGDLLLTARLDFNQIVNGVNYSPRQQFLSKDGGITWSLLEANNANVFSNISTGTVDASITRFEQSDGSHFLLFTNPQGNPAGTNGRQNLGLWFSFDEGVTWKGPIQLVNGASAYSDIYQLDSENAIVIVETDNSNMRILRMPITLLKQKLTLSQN
Test: Inhibition of Vibrio cholerae sialidase using Neu5Acalpha2-3GalbetapNP as substrate after 30 mins by colorimetric assay
# log scale: pIC50 equals minus log10 of the concentration in mol/L

1) CC(=O)N[C@H]1[C@H]([C@H](O)[C@H](O)Cn2cc(C[C@H](N)C(=O)O)nn2)OC(C(=O)O)=C[C@@H]1O    4.87

INPUT: # pIC50 lookup, item CC(=O)N[C@H]1[C@H]([C@H](O)[C@H](O)CN=[N+]=[N-])OC(C(=O)O)=C[C@@H]1O
OUTPUT: 4.70

INPUT: # pIC50 lookup, item CC(=O)N[C@H]1[C@H]([C@H](O)[C@H](O)Cn2cc(C[C@H](N)C(=O)N[C@H](CCC(=O)O)C(N)=O)nn2)OC(C(=O)O)=C[C@@H]1O
OUTPUT: 4.96

----------
System: Pasteurella multocida
Settings: at 0.1 mM
We begin with a simple list: items and their reported inhibition.
Give the figure together with its unit, number first.

INPUT: // inhibition lookup, key: CC(=O)N[C@H]1[C@H]([C@H](O)[C@H](O)CO)OC(C(=O)O)=C[C@@H]1O
OUTPUT: 2.1%

INPUT: # input molecule: CC(=O)N[C@H]1[C@H]([C@H](O)[C@H](O)CN=[N+]=[N-])OC(C(=O)O)=C[C@@H]1O ; wanted: its inhibition
OUTPUT: 1.7%

INPUT: Return reported inhibition; argument: CC(=O)N[C@H]1[C@H]([C@H](O)[C@H](O)Cn2cc(C[C@H](N)C(=O)N[C@H](CCC(=O)O)C(N)=O)nn2)OC(C(=O)O)=C[C@@H]1O
OUTPUT: 0.1%

INPUT: Record request: inhibition value, item CC(=O)N[C@H]1[C@H]([C@H](O)[C@H](O)Cn2cc(C[C@H](N)C(=O)O)nn2)OC(C(=O)O)=C[C@@H]1O
OUTPUT: 2.8%

----------
Biological target: Sialidase A (Streptococcus pneumoniae)
Sequence (P62575 whole entry): as the sequence (P62575 whole entry) above
Observation Type: IC50 (µM)
Your answer should be a plain number; it is taken to be in µM.

1. CC(=O)N[C@H]1[C@H]([C@H](O)[C@H](O)CN=[N+]=[N-])OC(C(=O)O)=C[C@@H]1O    44.3

Shift focus to the following entry.
INPUT: Form field - read-out: IC50; system: Sialidase A (Streptococcus pneumoniae); submitted item: CC(=O)N[C@H]1[C@H]([C@H](O)[C@H](O)Cn2cc(C[C@H](N)C(=O)N[C@H](CCC(=O)O)C(N)=O)nn2)OC(C(=O)O)=C[C@@H]1O
OUTPUT: 65.6
